# credit: patent US20080200454A1

Target: Recombinant human cathepsin S (CatS) (Homo sapiens, UniProt P25774)
Sequence (P25774 115-331): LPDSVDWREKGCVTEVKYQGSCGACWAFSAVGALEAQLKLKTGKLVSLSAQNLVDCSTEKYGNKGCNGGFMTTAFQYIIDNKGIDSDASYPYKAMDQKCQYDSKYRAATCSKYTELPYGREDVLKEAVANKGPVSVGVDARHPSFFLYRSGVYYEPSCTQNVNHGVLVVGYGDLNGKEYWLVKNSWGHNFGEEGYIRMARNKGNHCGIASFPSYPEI
Experiment: Recombinant human cathepsin S (CatS) inhibition assay, fluorogenic substrate Z-Valine-Valine-Arginine-AMC

compound: CN(C)S(=O)(=O)NCCCc1cc(-c2nn(CCCN3CCOCC3)c3c2CN(S(C)(=O)=O)CC3)ccc1Cl
units of measure: nM
IC50: 13000
//
compound: CS(=O)(=O)N1CCc2c(c(-c3ccc(Cl)c(C#Cc4ccc(CNCc5ccc(Cl)cc5)cc4)c3)nn2CCCN2CCC3(CC2)OCCO3)C1
units of measure: nM
IC50: 60
//
compound: C[C@H]1COCCN1CCCn1nc(-c2ccc(Cl)c(C#Cc3ccc(Cl)c(CNCCCO)c3)c2)c2c1CCN(C(=O)C(N)=O)C2
units of measure: nM
IC50: 20
//
compound: CC(C)(C)OC(=O)N1Cc2cc(C#Cc3cc(-c4nn(CCCN5CCOCC5)c5c4CN(S(C)(=O)=O)CC5)ccc3Cl)ccc2C[C@H]1C(=O)O
units of measure: nM
IC50: 630
//
compound: CC(=O)NC1CCN(CC(O)Cn2nc(-c3ccc(Cl)c(C#Cc4ccc(CNCc5ccc(Cl)cc5)cc4)c3)c3c2CCN(S(C)(=O)=O)C3)CC1 (stereo not shown)
units of measure: nM
IC50: 50
//
compound: CS(=O)(=O)N1CCc2c(c(-c3ccc(Cl)c(C#Cc4ccc5c(c4)CCNC5)c3)nn2CCCN2CCOCC2)C1
units of measure: nM
IC50: 280
//
compound: CS(=O)(=O)N1CCc2c(c(-c3ccc(Cl)c(CCCN4CCCCCC4)c3)nn2CCCN2CCC(N3CCCC3=O)CC2)C1
units of measure: nM
IC50: 500
//
compound: CS(=O)(=O)c1ccccc1S(=O)(=O)NCCCc1cc(-c2nn(CCCN3CCC(N4CCCC4=O)CC3)c3c2CN(S(C)(=O)=O)CC3)ccc1Cl
units of measure: nM
IC50: 2500
//
compound: CC(=O)N1CCc2c(c(-c3ccc(Cl)c(C#Cc4ccc(CNCc5ccc(Cl)cc5)cc4)c3)nn2CCCN2CCSCC2)C1
units of measure: nM
IC50: 160
//
compound: Cc1ccc(S(=O)(=O)NCCCc2cc(-c3nn(CCCN4CCC(N5CCCC5=O)CC4)c4c3CN(S(C)(=O)=O)CC4)ccc2Cl)cc1
units of measure: nM
IC50: 1040
//
compound: CS(=O)(=O)N1CCc2c(c(-c3ccc(Cl)c(C#Cc4ccc5c(c4)CC(C(=O)N4CCCC4)NC5)c3)nn2CCCN2CCOCC2)C1 (stereo not shown)
units of measure: nM
IC50: 180
//
compound: CS(=O)(=O)N1CCc2c(c(-c3ccc(Cl)c(CCCNS(=O)(=O)c4ccccc4Cl)c3)nn2CCCN2CCC(N3CCCC3=O)CC2)C1
units of measure: nM
IC50: 1150
//
compound: CNCCCNC(=O)c1ccc(C#Cc2cc(-c3nn(CCCN4CCOC[C@@H]4C)c4c3CN(C(=O)C(N)=O)CC4)ccc2Cl)cc1
units of measure: nM
IC50: 40

====

Below: a set of entries, each annotated with reported IC50.
Target: Recombinant human cathepsin S (CatS) (Homo sapiens, UniProt P25774)
Assay: Recombinant human cathepsin S (CatS) inhibition assay, fluorogenic substrate Z-Valine-Valine-Arginine-AMC;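 also: Baculovirus-expressed CatS in pH 5.0 sodium acetate buffer with DTT and NaCl, fluorescence read each minute over 20 min, inhibition derived from rate slope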
Settings: CatS IC50

compound: CC(C)(C)OC(=O)N1CCC(C2CCN(C[C@H](O)Cn3nc(-c4ccc(Cl)c(C#Cc5ccccn5)c4)c4c3CCN(S(C)(=O)=O)C4)CC2)CC1 [Example 234]
units of measure: µM
IC50: 0.28
--
compound: NC(=O)N1CCc2c(c(-c3ccc(Cl)c(C#Cc4ccc(CNCc5ccc(N)cc5)cc4)c3)nn2CCCN2CCSCC2)C1 [Example 551]
units of measure: µM
IC50: 0.1
--
compound: C[C@H]1COCCN1CCCn1nc(-c2ccc(Cl)c(C#Cc3ccc4c(c3)CNCC4)c2)c2c1CCN(S(C)(=O)=O)C2 [Example 278]
units of measure: µM
IC50: 0.11
--
compound: Cc1cccc(CNCc2ccc(C#Cc3cc(-c4nn(CCCN5CCSCC5)c5c4CN(C(N)=O)CC5)ccc3Cl)cc2)c1 [Example 508]
units of measure: µM
IC50: 0.11
--
compound: CS(=O)(=O)N1CCc2c(c(-c3ccc(Cl)c(C#Cc4cccc(CNCc5ccc(Cl)cc5)c4)c3)nn2CCCN2C[C@@H]3C[C@H]2CO3)C1 [Example 440]
units of measure: µM
IC50: 0.39
--
compound: C[C@H]1COCCN1CCCn1nc(-c2ccc(Cl)c(C#Cc3ccc(Cl)c(CNC4CC4)c3)c2)c2c1CCN(C(=O)C(N)=O)C2 [Example 589]
units of measure: µM
IC50: 0.03
--
compound: CS(=O)(=O)N1CCc2c(c(-c3ccc(Cl)c(C#Cc4ccc(CNCc5ccc(Cl)cc5)cc4)c3)nn2CCCN2CCC(F)(F)CC2)C1 [Example 357]
units of measure: µM
IC50: 0.21
--
compound: C[C@H]1COCCN1CCCn1nc(-c2ccc(Cl)c(C#Cc3ccc(Cl)c(C(=O)NCCCN(C)C(=O)OC(C)(C)C)c3)c2)c2c1CCN(C(=O)C(N)=O)C2 [Example 576]
units of measure: µM
IC50: 0.05
--
compound: CS(=O)(=O)N1CCc2c(c(-c3ccc(Cl)c(C#Cc4ccc(CNCc5ccc(Cl)cc5)cc4)c3)nn2CCCN2CCCNCC2)C1 [Example 391]
units of measure: µM
IC50: 0.26
--
compound: CS(=O)(=O)N1CCc2c(c(-c3ccc(Cl)c(C#Cc4ccc(CNCc5cccs5)cc4)c3)nn2CCCN2CCOCC2)C1 [Example 421]
units of measure: µM
IC50: 0.19
--
compound: O=C(CO)N1CCc2c(c(-c3ccc(Cl)c(C#Cc4ccc(CNCc5ccc(Cl)cc5)cc4)c3)nn2CCCN2CCSCC2)C1 [Example 413]
units of measure: µM
IC50: 0.1
--
compound: Cc1ccc(CNCc2ccc(C#Cc3cc(-c4nn(CCCN5CCSCC5)c5c4CN(C(N)=O)CC5)ccc3Cl)cc2)cc1 [Example 173]
units of measure: µM
IC50: 0.12
--
compound: C[C@H]1COCCN1C[C@@H](O)Cn1nc(-c2ccc(Cl)c(C#Cc3ccc(CNCc4ccc(Cl)cc4)cc3)c2)c2c1CCN(S(C)(=O)=O)C2 [Example 529]
units of measure: µM
IC50: 0.12
--
compound: CS(=O)(=O)N1CCc2c(c(-c3ccc(Cl)c(C#Cc4cccc(CNCCc5ccccc5)c4)c3)nn2CCCN2CCOCC2)C1 [Example 504]
units of measure: µM
IC50: 0.28
--
compound: CS(=O)(=O)N1CCc2c(c(-c3ccc(Cl)c(C#Cc4ccc(NCCc5ccccc5)cc4)c3)nn2CCCN2CCOCC2)C1 [Example 327]
units of measure: µM
IC50: 0.76
--
compound: COC(=O)[C@H]1Cc2ccc(C#Cc3cc(-c4nn(CCCN5CCOCC5)c5c4CN(S(C)(=O)=O)CC5)ccc3Cl)cc2CN1 [Example 200]
units of measure: µM
IC50: 0.09
--
compound: CS(=O)(=O)N1CCc2c(c(-c3ccc(Cl)c(C#Cc4cccc(CNCc5ccncc5)c4)c3)nn2CCCN2CCOCC2)C1 [Example 522]
units of measure: µM
IC50: 0.33
--
compound: C[C@H]1COCCN1CCCn1nc(-c2ccc(Cl)c(C#Cc3ccc(Cl)c(CN(C)C)c3)c2)c2c1CCN(C(=O)C(N)=O)C2 [Example 616]
units of measure: µM
IC50: 0.012
--
compound: CS(=O)(=O)N1CCc2c(c(-c3ccc(Cl)c(C#Cc4ccc(CNCc5ccc(Cl)cc5)cc4)c3)nn2CCCN2CCC(N)CC2)C1 [Example 331]
units of measure: µM
IC50: 0.17
--
compound: CS(=O)(=O)N1CCc2c(c(-c3ccc(Cl)c(C#Cc4ccc(Cl)c(CNCc5ccccc5)c4)c3)nn2CCCN2CCOCC2)C1 [Example 287]
units of measure: µM
IC50: 0.05
--
compound: CS(=O)(=O)N1CCc2c(c(-c3ccc(Cl)c(C#Cc4ccc(CNCc5ccc(Cl)cc5)cc4)c3)nn2CCCN2CCCC2)C1 [Example 333]
units of measure: µM
IC50: 0.18
--
compound: CS(=O)(=O)N1CCc2c(c(-c3ccc(Cl)c(C#Cc4ccc5c(c4)CCNCC5)c3)nn2CCCN2CCOCC2)C1 [Example 375]
units of measure: µM
IC50: 0.41
--
compound: CC(C)NCc1cc(C#Cc2cc(-c3nn(CCCN4CCOC[C@@H]4C)c4c3CN(C(=O)C(N)=O)CC4)ccc2Cl)ccc1Cl [Example 619]
units of measure: µM
IC50: 0.02
--
compound: CS(=O)(=O)N1CCc2c(c(-c3ccc(Cl)c(C#Cc4ccc(F)cc4F)c3)nn2CCCN2CCOCC2)C1 [Example 33]
units of measure: µM
IC50: 0.75
--
compound: COC(=O)CNCc1ccc(C#Cc2cc(-c3nn(CCCN4CCOCC4)c4c3CN(S(C)(=O)=O)CC4)ccc2Cl)cc1 [Example 347]
units of measure: µM
IC50: 0.61
--
compound: CN(C)Cc1cc(C#Cc2cc(-c3nn(CCCN4CCCCC4)c4c3CN(S(C)(=O)=O)CC4)ccc2Cl)ccc1Cl [Example 617]
units of measure: µM
IC50: 0.04
